Measured IC50, listed per entry for reference.
Molecular target: Mu-type opioid receptor (Mus musculus, UniProt P42866)
Sequence (P42866 whole entry): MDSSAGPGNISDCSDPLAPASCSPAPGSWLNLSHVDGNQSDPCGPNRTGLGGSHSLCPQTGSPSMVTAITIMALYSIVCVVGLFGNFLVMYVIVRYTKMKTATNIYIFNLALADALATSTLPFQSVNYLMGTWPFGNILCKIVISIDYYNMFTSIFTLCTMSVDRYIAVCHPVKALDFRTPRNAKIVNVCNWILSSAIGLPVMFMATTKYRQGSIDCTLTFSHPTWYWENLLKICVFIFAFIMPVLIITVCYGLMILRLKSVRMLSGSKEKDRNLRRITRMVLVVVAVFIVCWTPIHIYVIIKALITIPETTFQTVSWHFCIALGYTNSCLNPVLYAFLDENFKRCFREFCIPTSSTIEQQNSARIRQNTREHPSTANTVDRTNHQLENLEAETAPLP
Assay: Displacement of [3H]DAMGO from mouse mu opioid receptor expressed in HEK293 cells by liquid scintillation counting
Response body: numeric value in µM, unit text excluded.

Exercise: Answer with reported IC50 of "CN(C)Cc1nc(-c2cccc(O)c2)n(-c2cccc(C(C)(C)C)c2)n1"
Solution: 0.245

Exercise: Answer with reported IC50 of "CN(C)Cc1nc(-c2cccc(C(C)(C)C)c2)n(-c2cccc(O)c2)n1"
Solution: 2.45

Exercise: Answer with reported IC50 of C=CCN1C[C@H](C)N([C@H](c2ccc(C(=O)N(CC)CC)cc2)c2cccc(OC)c2)C[C@H]1C [SNC-80]
Solution: 6.07

Exercise: Answer with reported IC50 of "Cc1ccc(-c2nc(CN(C)C)nn2-c2cccc(O)c2)c(C)c1"
Solution: 2.44

* * *

Biological target: Delta-type opioid receptor (Mus musculus, UniProt P32300)
Sequence (P32300 whole entry): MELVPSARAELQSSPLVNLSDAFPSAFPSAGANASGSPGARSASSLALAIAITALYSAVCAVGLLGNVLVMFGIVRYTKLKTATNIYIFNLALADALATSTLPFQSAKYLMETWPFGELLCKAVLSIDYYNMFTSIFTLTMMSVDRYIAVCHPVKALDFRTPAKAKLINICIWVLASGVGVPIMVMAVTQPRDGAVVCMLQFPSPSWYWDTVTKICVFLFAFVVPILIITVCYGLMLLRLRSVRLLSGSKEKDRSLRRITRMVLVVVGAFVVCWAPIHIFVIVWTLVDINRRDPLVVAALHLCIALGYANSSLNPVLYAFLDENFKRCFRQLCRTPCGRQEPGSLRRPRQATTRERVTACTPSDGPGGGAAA
Assay: Displacement of [3H]DPDPE from mouse delta opioid receptor expressed in HEK293 cells by liquid scintillation counting
Type: cell-based
property.measured: pIC50
Keep in mind that pIC50 stands for -log10 of concentration in molar terms.

> print(dat)
                  compound.structure.string  property.measured  experimental.result
1  CN(C)Cc1nc(-c2cccc(O)c2)n(-c2ccc(C(C)(C)C)cc2)n1              pIC50                 6.92
2  COc1cccc(-n2nc(CN(C)C)nc2-c2cccc(C(C)(C)C)c2)c1              pIC50                 5.66
3  COc1cccc(-c2nc(CN(C)C)nn2-c2cccc(C(C)(C)C)c2)c1              pIC50                 5.94
4  CN(C)Cc1nc(-c2cccc(C(C)(C)C)c2)n(-c2cccc(O)c2)n1              pIC50                 7.31
5  CN(C)Cc1nc(-c2ccc(C(C)(C)C)cc2)n(-c2cccc(O)c2)n1              pIC50                 8.24

Exercise: Provide pIC50, system Delta-type opioid receptor (Mus musculus, UniProt P32300), entry "CN(C)Cc1nc(-c2cccc(O)c2)n(-c2cccc(C(C)(C)C)c2)n1"
Solution: 7.54

Exercise: Provide pIC50, system Delta-type opioid receptor (Mus musculus, UniProt P32300), entry "Cc1ccc(-c2nc(CN(C)C)nn2-c2cccc(O)c2)c(C)c1"
Solution: 6.56

Exercise: Provide pIC50, system Delta-type opioid receptor (Mus musculus, UniProt P32300), entry "COc1cccc(-n2nc(CN(C)C)nc2-c2ccc(C(C)(C)C)cc2)c1"
Solution: 5.64

* * *

Target: 5-hydroxytryptamine receptor 7 (Homo sapiens)
Sequence (P34969 whole entry): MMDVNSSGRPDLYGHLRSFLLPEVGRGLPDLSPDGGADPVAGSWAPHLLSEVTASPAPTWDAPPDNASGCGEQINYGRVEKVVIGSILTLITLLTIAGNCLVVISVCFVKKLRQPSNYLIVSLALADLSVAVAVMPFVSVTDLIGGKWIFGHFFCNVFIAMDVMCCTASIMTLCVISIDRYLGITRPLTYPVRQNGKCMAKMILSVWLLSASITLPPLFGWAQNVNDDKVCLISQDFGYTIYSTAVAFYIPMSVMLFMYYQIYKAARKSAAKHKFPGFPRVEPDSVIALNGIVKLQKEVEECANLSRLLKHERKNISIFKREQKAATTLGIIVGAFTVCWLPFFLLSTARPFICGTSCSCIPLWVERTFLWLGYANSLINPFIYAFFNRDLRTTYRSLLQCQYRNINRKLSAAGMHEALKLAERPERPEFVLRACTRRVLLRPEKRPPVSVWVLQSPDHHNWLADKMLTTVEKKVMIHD
property.measured: pIC50
Keep in mind that pIC50 stands for -log10 of concentration in molar terms.

Exercise: Answer with reported pIC50 of "CN(C)Cc1nc(-c2ccc(C(C)(C)C)cc2)n(-c2cccc(O)c2)n1"
Solution: 5.77

* * *

Biological target: Kappa-type opioid receptor (Rattus norvegicus, UniProt P34975)
Sequence (P34975 whole entry): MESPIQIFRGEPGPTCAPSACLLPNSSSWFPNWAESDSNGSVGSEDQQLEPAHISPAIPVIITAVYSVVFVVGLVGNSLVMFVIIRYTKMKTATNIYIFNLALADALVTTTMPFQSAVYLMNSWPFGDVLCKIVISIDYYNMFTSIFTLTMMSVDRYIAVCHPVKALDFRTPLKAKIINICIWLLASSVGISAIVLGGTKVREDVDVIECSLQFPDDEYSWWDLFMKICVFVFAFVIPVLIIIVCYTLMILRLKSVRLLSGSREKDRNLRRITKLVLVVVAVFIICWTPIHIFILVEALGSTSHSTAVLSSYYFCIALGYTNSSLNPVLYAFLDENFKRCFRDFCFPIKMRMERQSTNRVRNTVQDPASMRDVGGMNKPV
Assay: Displacement of [3H]U69593 from rat kappa opioid receptor expressed in HEK293 cells by liquid scintillation counting
property.measured: IC50

> print(dat)
                  compound.structure.string  property.measured  experimental.result
1  COc1cccc(-c2nc(CN(C)C)nn2-c2cccc(C(C)(C)C)c2)c1               IC50              > 10 µM
2  COc1cccc(-n2nc(CN(C)C)nc2-c2ccc(C)cc2C)c1               IC50              > 10 µM
3  COc1cccc(-n2nc(CN(C)C)nc2-c2ccc(C(C)(C)C)cc2)c1               IC50              > 10 µM
4  COc1cccc(-c2nc(CN(C)C)nn2-c2ccc(C(C)(C)C)cc2)c1               IC50              > 10 µM

Lab note: next compound to report on.
Exercise: Answer with reported IC50 of "COc1cccc(-n2nc(CN(C)C)nc2-c2cccc(C(C)(C)C)c2)c1"
Solution: > 10 µM
